Assign IC50 to each entry below.
test system: NCI-H460 non-small cell carcinoma cells; assay: Cytotoxicity (sulphorodamine B) on NCI-H460 tumor cells; assay type: cell-based; settings: Homo sapiens, 24 h treatment, then 48 h in drug-free medium, read-out: IC50 ± SD, NCI-H460
Give bare numbers, in nM.

Below, 3 compounds whose answers are already recorded.
compound | quantitativeReadout
CCCOC(CCCCC(=O)NO)C(=O)Nc1ccccc1 (racemic) [Compound 5e] | 10400
COc1cc(COC(CCCCCC(=O)NO)C(=O)Nc2ccccc2)cc(OC)c1 (racemic) [Compound 9j] | 400
COc1ccc(NC(=O)C(CCCCCC(=O)NO)OCc2ccccc2)cc1 (racemic) [Compound 9l] | 1000

*Q* Which IC50 is reported with NCI-H460 non-small cell carcinoma cells for this entry: O=C(CCCCCC(OCc1ccc(C(F)(F)F)cc1)C(=O)Nc1ccccc1)NO (racemic) [Compound 9e] ?
*A* 500
